molecular target: UniProt:Q9Y5Y4; assay: Calcium mobilisation assay in CHO/CRTH2 cells (PGD2-induced calcium flux); details: inhibition of PGD2-induced calcium flux, read-out: CRTH2 Ca flux IC50
experimentalReadout: pIC50
Numbers only, as −log10 of the molar value.

Cc1c(S(=O)(=O)c2nc3ccccc3s2)c2cc(F)ccc2n1CC(=O)O [Compound 6]    6.46
Cc1c(S(=O)(=O)Nc2cccc(Cl)c2)c2cc(F)ccc2n1CC(=O)O [Compound 12]    7.09

Look up pIC50 for the entries below, preserving their order.
1. Cc1c(S(=O)(=O)Nc2ccc(Cl)cc2)c2cc(F)ccc2n1CC(=O)O [Compound 11]
2. Cc1c(S(=O)(=O)c2ccc(-c3ccccc3)cc2)c2cc(F)ccc2n1CC(=O)O [Compound 2]
3. Cc1c(S(=O)(=O)CCS(C)(=O)=O)c2cc(F)ccc2n1CC(=O)O [Compound 5]
4. Cc1c(S(=O)(=O)c2ccc3ccccc3n2)c2cc(F)ccc2n1CC(=O)O [Compound 8]
5. Cc1cccc(NS(=O)(=O)c2c(C)n(CC(=O)O)c3ccc(F)cc23)c1 [Compound 21]
6. Cc1c(S(=O)(=O)Nc2ccc(F)cc2)c2cc(F)ccc2n1CC(=O)O [Compound 13]
7. Cc1c(S(=O)(=O)Cc2ccccc2)c2cc(F)ccc2n1CC(=O)O [Compound 10]
8. CCCCS(=O)(=O)c1c(C)n(CC(=O)O)c2ccc(F)cc12 [Compound 1]

[6.71, 6.79, 6.57, 6.48, 5.97, 5.78, 7.10, 6.55]

Look up pIC50 for the entries below, preserving their order.
1. Cc1c(S(=O)(=O)Nc2ccccc2Cl)c2cc(F)ccc2n1CC(=O)O [Compound 14]
2. Cc1c([S+]([O-])c2nc3ccccc3s2)c2cc(F)ccc2n1CC(=O)O (stereo not drawn) [Compound 7]

[6.41, 6.79]

====

biological target: CRTH2 (Homo sapiens, UniProt Q9Y5Y4)
Sequence (Q9Y5Y4 whole entry): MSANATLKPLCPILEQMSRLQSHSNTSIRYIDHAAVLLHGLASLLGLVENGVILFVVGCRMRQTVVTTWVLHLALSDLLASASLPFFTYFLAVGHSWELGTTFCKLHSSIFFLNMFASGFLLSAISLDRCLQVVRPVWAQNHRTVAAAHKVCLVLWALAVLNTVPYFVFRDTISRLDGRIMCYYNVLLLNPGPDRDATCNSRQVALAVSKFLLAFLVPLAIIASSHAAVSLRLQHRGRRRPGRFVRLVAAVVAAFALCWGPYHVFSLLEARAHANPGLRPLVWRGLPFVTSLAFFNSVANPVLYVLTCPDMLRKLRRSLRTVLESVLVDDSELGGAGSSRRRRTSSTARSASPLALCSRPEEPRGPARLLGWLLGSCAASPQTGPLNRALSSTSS
Label YES when Ki < 200 nM; otherwise NO.

Reference set, count: 8
Cc1c(S(=O)(=O)c2ccc(-c3ccccc3)cc2)c2cc(F)ccc2n1CC(=O)O [Compound 2]    YES
Cc1c(S(=O)(=O)CC(=O)O)c2cc(F)ccc2n1CC(=O)O [Compound 3]    NO
Cc1c(S(=O)(=O)CC(N)=O)c2cc(F)ccc2n1CC(=O)O [Compound 4]    NO
Cc1c(S(=O)(=O)c2ccc3ccccc3n2)c2cc(F)ccc2n1CC(=O)O [Compound 8]    NO
Cc1c(S(=O)(=O)c2cccc3cccnc23)c2cc(F)ccc2n1CC(=O)O [Compound 9]    NO
Cc1c(S(=O)(=O)CCS(C)(=O)=O)c2cc(F)ccc2n1CC(=O)O [Compound 5]    YES
CCCCS(=O)(=O)c1c(C)n(CC(=O)O)c2ccc(F)cc12 [Compound 1]    YES
COc1ccc(NS(=O)(=O)c2c(C)n(CC(=O)O)c3ccc(F)cc23)cc1 [Compound 17]    NO

In plain terms, does Cc1c(S(=O)(=O)Nc2ccccc2Cl)c2cc(F)ccc2n1CC(=O)O [Compound 14] come in under 200 nM for Ki?
NO

Same again, this time with Cc1c(S(=O)(=O)N(C)Cc2ccccc2)c2cc(F)ccc2n1CC(=O)O [Compound 24]
YES

Recorded values, source patent US20070232681A1.
